meta.source: PubChem BioAssay (Tox21)

EXPERIMENTAL_TARGET: Vitamin D3 receptor (Homo sapiens) (UniProt P11473)
Sequence (P11473 whole entry, looked up): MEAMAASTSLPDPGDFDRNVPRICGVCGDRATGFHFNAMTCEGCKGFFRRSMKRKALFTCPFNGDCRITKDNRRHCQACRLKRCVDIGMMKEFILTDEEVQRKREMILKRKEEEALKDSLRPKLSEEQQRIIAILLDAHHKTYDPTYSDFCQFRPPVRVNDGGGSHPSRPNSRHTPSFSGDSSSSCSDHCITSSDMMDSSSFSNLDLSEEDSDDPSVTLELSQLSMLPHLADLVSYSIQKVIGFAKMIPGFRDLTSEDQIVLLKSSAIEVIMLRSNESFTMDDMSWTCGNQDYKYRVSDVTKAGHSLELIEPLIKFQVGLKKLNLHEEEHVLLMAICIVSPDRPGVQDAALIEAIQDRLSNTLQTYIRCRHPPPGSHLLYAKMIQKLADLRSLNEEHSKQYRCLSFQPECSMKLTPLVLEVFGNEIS
EXPERIMENT_DESCRIPTION: qHTS assay to identify small molecule antagonists of the vitamin D receptor (VDR) signaling pathway (AID 743223)
MEASUREMENT_CONTEXT: VDR-UAS-bla HEK293T, beta-lactamase FRET ratio, 16 h; series mostly up to 61 µM
Results filed as inconclusive are left out. Calls of active or inactive are those of the source. Calls come from the whole dose curve; as a rule, active = well fitted inhibition curve with a large enough effect in the signal ratio in the repeat runs (not every such curve was filed as active); inconclusive = weak or mixed curves, or effect the other way; inactive = no such curve, though single readings can be large or run the other way; the % refers to the signal ratio.
MEASUREMENT_TYPE: activity change, negative = inhibition

CCCCCCCC | inactive
Cc1c(C)c2c(c(C)c1OC(=O)c1cccnc1)CC[C@@](C)(CCC[C@H](C)CCC[C@H](C)CCCC(C)C)O2 | inactive
CCOc1ccc2ccccc2c1C(=O)N[C@@H]1C(=O)N2[C@@H]1SC(C)(C)[C@@H]2C(=O)O | inactive
O=[N+]([O-])c1ccc(F)c(Cl)c1 | inactive
COc1cc(/C=C/c2ccccc2)oc(=O)c1 | inactive

IN: Note down activity change, negative = inhibition recorded for COc1cc(C)ccc1O
OUT: inactive

IN: Note down activity change, negative = inhibition recorded for COc1ccc2c(c1)c(CC(=O)OC/C=C(\C)CC/C=C(\C)CCC=C(C)C)c(C)n2C(=O)c1ccc(Cl)cc1
OUT: inactive
